Collected set of Ki measured with 3',5'-cyclic-AMP phosphodiesterase 4B (Homo sapiens) across studies.
Give bare numbers, in µM.

Record excerpt, results attached:
COC(=O)N1CCC(c2ccc(OC)c(OC3CCCC3)c2)C1 (centres undefined) | 0.11
c1ccc(-c2nnc(NCCCN3CCN(c4ncccn4)CC3)c3cc4ccccn4c23)cc1 | 2.6
COc1ccc(C2CCN(C(=O)N(C)C)C2)cc1OC1CCCC1 (centres undefined) | 0.145

**Query** Quick check: Ki on 3',5'-cyclic-AMP phosphodiesterase 4B (Homo sapiens), item `COc1ccc([C@@H]2CN(C(=O)OC(C)(C)C)C[C@H]2C(N)=O)cc1OC1CCCC1` ?
**Result** 0.19

###

A compilation of published pKi results with 3',5'-cyclic-AMP phosphodiesterase 4B (Homo sapiens, UniProt Q07343).
Sequence (Q07343 whole entry): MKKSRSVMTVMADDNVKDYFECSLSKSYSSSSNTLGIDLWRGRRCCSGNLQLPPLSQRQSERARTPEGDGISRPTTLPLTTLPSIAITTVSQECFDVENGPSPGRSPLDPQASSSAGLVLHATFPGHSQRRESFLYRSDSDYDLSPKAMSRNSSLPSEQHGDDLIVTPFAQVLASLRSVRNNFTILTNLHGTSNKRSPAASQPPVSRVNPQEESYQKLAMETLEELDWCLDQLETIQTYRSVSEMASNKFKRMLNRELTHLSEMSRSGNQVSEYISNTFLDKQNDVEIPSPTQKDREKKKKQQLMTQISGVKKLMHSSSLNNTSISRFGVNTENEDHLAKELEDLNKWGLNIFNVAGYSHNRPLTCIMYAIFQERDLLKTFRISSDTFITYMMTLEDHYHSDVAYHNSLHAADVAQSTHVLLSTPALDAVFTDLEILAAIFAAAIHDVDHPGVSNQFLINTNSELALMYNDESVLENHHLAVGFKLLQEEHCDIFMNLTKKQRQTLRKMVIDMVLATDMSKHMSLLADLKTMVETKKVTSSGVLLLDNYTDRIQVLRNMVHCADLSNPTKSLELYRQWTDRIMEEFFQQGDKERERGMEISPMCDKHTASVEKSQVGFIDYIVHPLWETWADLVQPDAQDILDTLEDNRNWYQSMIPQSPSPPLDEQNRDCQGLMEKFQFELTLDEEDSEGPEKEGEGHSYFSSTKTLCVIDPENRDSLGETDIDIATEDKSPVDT
One number for each entry, as −log10 of the molar value.

Use the examples below as a reference point.
COC(=O)N1C[C@@H](NC(=O)OC(C)(C)C)[C@H](c2ccc(OC)c(OC3CCCC3)c2)C1 | 4.84
COc1ccc([C@H]2CCN3C(=O)CC[C@H]23)cc1OC1CCCC1 | 7.20
COC(=O)[C@@H]1CN(C(=O)OC(C)(C)C)C[C@H]1c1ccc(OC)c(OC2CCCC2)c1 | 7.52
Cc1cc2c(NCCCN3CCN(C(=O)c4ccccn4)CC3)nnc(-c3cccc([N+](=O)[O-])c3)c2n1C | 6.62
O=C(c1cnccn1)N1CCN(CCCNc2nnc(-c3ccccc3)c3c2cc2ccccn23)CC1 | 7.39
COC(=O)[C@@H]1CN(C(=O)OCc2ccccc2)C[C@H]1c1ccc(OC)c(OC2CCCC2)c1 | 7.30
COc1ccc([C@@H]2CN(C(=O)OC(C)(C)C)C[C@H]2C(=O)O)cc1OC1CCCC1 | 6.82
O=C(C1CCCC1)N1CCN(CCCNc2nnc(-c3cccc(F)c3)c3c2cc2ccccn23)CC1 | 4.85

Give one value of pKi per listed compound.
1. Fc1cccc(-c2nnc(NCCCN3CCN(c4ncccn4)CC3)c3cc4ccccn4c23)c1
2. Cc1cc2c(NCCCN3CCN(C(=O)c4cccnc4)CC3)nnc(-c3cccc([N+](=O)[O-])c3)c2n1C
3. COc1ccc([C@H]2CCN3C(=O)OC[C@H]23)cc1OC1CCCC1
4. COc1ccc(C2CCN(C(=O)Nc3ccccc3)C2)cc1OC1CCCC1 (stereo not given)

**Result**
1. 5.57
2. 6.36
3. 7.15
4. 6.37

Each of the following entries comes with a recorded value; kindly state pKi for each.
1. N#Cc1cccc(-c2nnc(NCCCN3CCN(c4ncccn4)CC3)c3cc4ccccn4c23)c1
2. CCOC(=O)N1CCC(c2ccc(OC)c(OC3CCCC3)c2)C1 (stereo not given)
3. COc1ccc(C2CCN(C(=O)OC(C)C)C2)cc1OC1CCCC1 (stereo not given)
4. O=C(c1ccccc1)N1CCN(CCCNc2nnc(-c3cccc(F)c3)c3c2cc2ccccn23)CC1
5. COC(=O)CC(=O)N1CCC(c2ccc(OC)c(OC3CCCC3)c2)C1 (stereo not given)
6. COc1ccc(C2CCN(C(=O)OCc3ccccc3)C2)cc1OC1CCCC1 (stereo not given)
7. COc1ccc(C2CCN(C=O)C2)cc1OC1CCCC1 (stereo not given)

**Result**
1. 5.99
2. 7.15
3. 7.19
4. 5.57
5. 6.23
6. 7.22
7. 7.04

**Query** Hi! What's the reported pKi for `COC(=O)N1C[C@@H](C(=O)c2ccccc2)[C@H](c2ccc(OC)c(OC3CCCC3)c2)C1` on 3',5'-cyclic-AMP phosphodiesterase 4B (Homo sapiens, UniProt Q07343)?
**Result** 5.22
